// reported pIC50 per item
# SUBJECT_OF_TEST: Proteasome Macropain subunit MB1 (Homo sapiens)
# Sequence (P28074 whole entry): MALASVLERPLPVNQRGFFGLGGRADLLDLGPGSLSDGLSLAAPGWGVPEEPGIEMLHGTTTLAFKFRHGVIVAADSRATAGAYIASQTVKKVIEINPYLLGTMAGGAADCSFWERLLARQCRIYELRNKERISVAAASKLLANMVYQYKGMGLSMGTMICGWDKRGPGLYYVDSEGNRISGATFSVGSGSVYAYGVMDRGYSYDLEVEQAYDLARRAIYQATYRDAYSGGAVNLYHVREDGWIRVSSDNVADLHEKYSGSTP
# ASSAY_PROTOCOL: Inhibition of human beta5 20S constitutive proteasome using suc-LLVY-AMC as substrate
The read-out pIC50 is expressed as -log10 of concentration in moles per litre.

Cc1ccc(S(=O)(=O)N[C@@H](CC(=O)NC(C)(C)C)C(=O)NCCNC(=O)c2cccc(O)c2)cc1 : 5.36
Cc1ccc(S(=O)(=O)N[C@@H](CC(=O)NC(C)(C)C)C(=O)NCCNC(=O)c2ccccc2)cc1 : 5.85
COc1cccc(C(=O)NCCNC(=O)[C@H](CC(=O)NC(C)(C)C)NS(=O)(=O)c2ccc(C)cc2)c1 : 6.30
Cc1ccc(S(=O)(=O)N[C@@H](CC(=O)NC(C)(C)C)C(=O)NCCNC(=O)c2ccc(Cl)cc2)cc1 : 5.30
Cc1ccc(S(=O)(=O)N[C@@H](CC(=O)NC(C)(C)C)C(=O)NCCNC(=O)c2c(O)cccc2F)cc1 : 6.27

# input for lookup
Looking up Cc1ccc(S(=O)(=O)N[C@@H](CC(=O)NC(C)(C)C)C(=O)NCCNC(=O)c2cc(-c3ccccc3F)ccc2F)cc1 , I found its pIC50 recorded as 6.96
